Attribution: patent EP1803452A1

assay: Stability test in buffer (pH 7.4); type: physicochemical; settings: phosphate buffer/acetonitrile 7:3; 10 minutes at 37°C, 100 mM potassium phosphate buffer (pH 7.4) and acetonitrile 7:3 (v/v), LC/MS; read-out: Buf. remaining rate (%/10min)
measurement-type: remaining at 10 min (%)

smiles-string: COC(=O)c1cc(C(=O)OC(C)C)cc(C)c1OC(=O)CCCc1ccc(NC(=O)c2ccc(C)nc2-c2ccc(C(F)(F)F)cc2)c(C(=O)N(C)C)c1
val: 99

smiles-string: COc1cc(C(=O)OCCNC(C)=O)cc(Cl)c1OC(=O)CCCc1ccc(NC(=O)c2ccc(C)nc2-c2ccc(C(F)(F)F)cc2)c(C(=O)N(C)C)c1
val: 104

smiles-string: CN(C)C(=O)c1cc(CCC(=O)Oc2ccccc2)ccc1NC(=O)c1ccccc1-c1ccc(C(F)(F)F)cc1
val: 101

smiles-string: COC(=O)c1ccc(OC(=O)CCCc2ccc(NC(=O)c3ccccc3-c3ccc(C(F)(F)F)cc3)c(C(=O)N(C)C)c2)c(C(=O)OC)c1
val: 98

smiles-string: CN(C)C(=O)c1cc(CCCC(=O)Oc2ccc(C(=O)OCc3cccs3)cc2)ccc1NC(=O)c1ccccc1-c1ccc(C(F)(F)F)cc1
val: 101

smiles-string: COC(=O)c1ccc(OC(=O)CCCc2ccc(NC(=O)c3ccccc3-c3ccc(C(F)(F)F)cc3)c(C(=O)N(C)C)c2)c(OC)c1
val: 100
